test: soluble fraction after stress (log2 fold change); higher = more stays soluble; pooled small domains, quantitative proteomics; settings: stress: pH 4
Categories are assigned from the measured soluble fraction (log2) using these intervals: 0 (below -0.2), 1 (-0.2 to below 0.01), 2 (0.01 or more)

[
  {
    "sequence_text": "HMARPLLSPREQDVLALIARGFSYSEVARLQAVTVHTIRTHIRNLYAKLSVHSKTEAVFEATRMGLLP",
    "classification": 0
  },
  {
    "sequence_text": "HMAQVSDTGAIAKIVADAIAANPKQVQQYLDGNEKVLMYLVGQVMKLSKGKANPPMVIQLLKEQLG",
    "classification": 1
  },
  {
    "sequence_text": "HMDTSADEVKQLIASFVEQEDKRKPLSDQKIVELLAEKEQKISRRTVAKYRDALNIPSSSKRKRF",
    "classification": 1
  },
  {
    "sequence_text": "HMDKNLQYADTPKGKLREYIKNLPNGSTVNRQKLAEEFGIKKQSMGTVTEVFQEFPDKNFKFVNP",
    "classification": 1
  },
  {
    "sequence_text": "HMSGDKKLQMNLILEFAQQNESFRTKDIEELLQIRSSRARKLISDLVTEGRLEALGENRNRRYQLI",
    "classification": 0
  },
  {
    "sequence_text": "HMVVYDAELLLNINPGMSYEEVKEMLGDPGMIIAGNDAENSVYRWSTGGISFMGRFENGALIRKSIISP",
    "classification": 0
  },
  {
    "sequence_text": "HMRVQELARDLGVEADTLIALLRQMGIPVTGARSAINDAQQAKVLAKIERERRAGHSDPAKAIQAVLEEAS",
    "classification": 2
  },
  {
    "sequence_text": "HMSENKIMEIVQDLAREKSVILISHRLANVTAADKILYMEQGKIAESGTHEQLMAQNKAYAALFNKQQEL",
    "classification": 1
  },
  {
    "sequence_text": "HMTVGEKIQKYRKDLDLSQEELGQKLLVSRQTISLWEKDQTVPTIDNLIRLREIFGVSVDEILGF",
    "classification": 0
  },
  {
    "sequence_text": "HMGSYIGEAKAKEIALSHAGVSASQATFVRSQFEYDDGRAVYDVDFWSGNKEYDYEIDAKSGTIVSYDFD",
    "classification": 2
  },
  {
    "sequence_text": "HMGEFVQLKNRTGSVIEAKILNYQNGKVKLQRKDGVIFVVPISIFDRMSSSIIENKAKEMDSF",
    "classification": 2
  },
  {
    "sequence_text": "HMRNSFTVENTGERLDVFLTGQMPEFSRSHIQKLIASGQAWVNGVNRKGNFKLKPHDVVELEVPEPE",
    "classification": 2
  },
  {
    "sequence_text": "HMALMLGGLIVYLNTTAPRDDIDLIELSKDTKAMAAFGNKLASPDYNGKQFALDWHELSRDEIMSKYFS",
    "classification": 0
  },
  {
    "sequence_text": "HMGELDPKIIAQINTFLQGITKLIEHPGNKDAKKTALGALHKLTFDQNITANFGKQLGQLDQVIQSSEET",
    "classification": 1
  },
  {
    "sequence_text": "HMRGWGTVKRRTPKSGRYRASYIGPDGKRYAADHTYAAKVDADAWLSSERALITAGVWTPPTDRVT",
    "classification": 1
  },
  {
    "sequence_text": "HMIGGASVFKQFLPLADKMLLTLIHSEFEGDTYFPVFSEKEWLLQESSSLLSATGYQLSFQTYIR",
    "classification": 2
  },
  {
    "sequence_text": "HMGQELTMPDLKSMSRSNAEEKLKKMGLKLGAVFEENAKEPAGTVINQDPRSGSKITKGQTVDITVSLGEK",
    "classification": 2
  },
  {
    "sequence_text": "HMKSIPKIKWNSTLENIKNFEYQDNFFESKEMYDLLVSFYKYGFVIIKNIPTNNNFIVKFANSIGS",
    "classification": 2
  },
  {
    "sequence_text": "HMRAVFEQLRIGQTLAGVVKAQEKGFSLVEIDGQTVAMRLPHPAAVGDTLRLRFAGHMPQAVFLLES",
    "classification": 1
  },
  {
    "sequence_text": "HMEKDRDKRIRKRVLTALKRNDKKMTDKAFALLTSRIRDESILDQEVLKLIGYVGDRTTIDSKDINIVVAE",
    "classification": 2
  },
  {
    "sequence_text": "HMSLANTSVKEMLNDLVKNEEPSKPLSDEALVKIFKEKGVKIARRTVAKYRAELNILPSHLRRT",
    "classification": 1
  },
  {
    "sequence_text": "HMLDGFEVGMTVMRKPGTETGFTGWPPFADKDEFPVIERIDTSDSTLLLRFNDTSWWINASLVEPSDV",
    "classification": 0
  },
  {
    "sequence_text": "HMRVNINVSENILDWVMKRVNPSVLSSKQGELLYAWKEGRKVPTYNQIEKMSKVTGIPLGYFFLEKPPVE",
    "classification": 2
  },
  {
    "sequence_text": "HMEGNFFADIRQELMRELDQEAEWSDVQILEKIDDLVLLRTRRSSLTVNEKEQLRKELFYSVRK",
    "classification": 0
  },
  {
    "sequence_text": "HMSLAVFLQGLLEEKQLKKADVIRRTGMEPTYGYHIFDGHKKHPARSKVLLLALAMGLTVKEAQHLLYYAG",
    "classification": 0
  },
  {
    "sequence_text": "HMETSIQFIRLEIGHNHPWVNQTLKEIPTIPGTLIAAVLRGDEDQAIIPKGDTLLKEGDSVIIGAKEYQD",
    "classification": 0
  },
  {
    "sequence_text": "HMEPMNMYSSIKKVIGVVSGKGGVGKSLVTASLARMMRAKGYHVGIMDADITGPSIPKMYGLHEMA",
    "classification": 2
  },
  {
    "sequence_text": "HMDVQPTTTKTMFYTVQQGETLFSISRKFGISVEEITKKNPLASSGLTVGMELLLPEKKEINSTIQS",
    "classification": 1
  },
  {
    "sequence_text": "HMQPIEIQDRITKAFERSAALEAKNINVEVDGHTVKLTGTVHSLTEKEEARKAAFFAPGVTKVENHLIVDY",
    "classification": 1
  },
  {
    "sequence_text": "HMEHIDVSGRAFDVSVSRLKRARRLTMRIDTHKQLVKISAPLHVESSTIRAFLARNQNWLEQQVEKR",
    "classification": 2
  },
  {
    "sequence_text": "HMTQQYVEWKVYNVTTIKNKYGFRVKLIFQDGSDATQQKGGFTSKKAAEQARTEVIGQLYSNTYVVY",
    "classification": 2
  },
  {
    "sequence_text": "HMHTPSGALLSAIEKEWGSFDNFKKEFTTAATSLFGSGWVWLAKDKKGKLYILSENNAGNPITKGYTPILG",
    "classification": 0
  },
  {
    "sequence_text": "HMPLSVRQRMSDILSNLKTSDFTNFADLFDPKEGRTGITVTFIAILELLREFLIEVVQSDHYQPLHVRAAS",
    "classification": 2
  }
]
